system: HL-60; experiment: HL-60 differentiation potency; assay type: cell-based; conditions: Homo sapiens
OUTCOME MEASURE: EC50 (nM)
Give the value in nM but do not write nM after it.

COMPOUND: C[C@H]1[C@@H](Oc2ccc(C(=O)N[C@H]3C[C@@H](C(=O)O)C3)cc2)O[C@@H]2O[C@@]3(C)CC[C@H]4[C@H](C)CC[C@@H]1[C@@]24OO3 [Compound 233]
EC50 (nM): 93.6
//
COMPOUND: C[C@H]1[C@@H](Oc2ccc([C@@H](C)C(=O)O)cc2F)O[C@@H]2O[C@@]3(C)CC[C@H]4[C@H](C)CC[C@@H]1[C@@]24OO3 [Compound 279]
EC50 (nM): 26.8
//
COMPOUND: C[C@H]1[C@@H](O[C@H]2CC[C@@H](C(=O)N[C@H](C(=O)O)C(C)(C)C)CC2)O[C@@H]2O[C@@]3(C)CC[C@H]4[C@H](C)CC[C@@H]1[C@@]24OO3 [Compound 229]
EC50 (nM): 204
//
COMPOUND: C[C@H]1[C@@H](OCC23[C@H]4[C@H]5[C@@H]2[C@H]2[C@@H]3[C@@H]4C52C(=O)O)O[C@@H]2O[C@@]3(C)CC[C@H]4[C@H](C)CC[C@@H]1[C@@]24OO3 (some centres unmarked) [Compound 253]
EC50 (nM): 237
//
COMPOUND: C[C@H]1[C@@H](OC[C@]2(F)CC[C@@H](C(=O)O)CC2)O[C@@H]2O[C@@]3(C)CC[C@H]4[C@H](C)CC[C@@H]1[C@@]24OO3 [Compound 200]
EC50 (nM): 4470
//
COMPOUND: C[C@H]1[C@@H](Oc2ccc(OCC(=O)O)cc2Cl)O[C@@H]2O[C@@]3(C)CC[C@H]4[C@H](C)CC[C@@H]1[C@@]24OO3 [Compound 218]
EC50 (nM): 101
//
COMPOUND: C[C@H]1[C@@H](O[C@H]2CC[C@@H](C(=O)N[C@@H](CC(F)(F)F)C(=O)O)CC2)O[C@@H]2O[C@@]3(C)CC[C@H]4[C@H](C)CC[C@@H]1[C@@]24OO3 [Compound 237]
EC50 (nM): 7260
//
COMPOUND: C[C@H]1[C@@H](Oc2ccc(CC(=O)NC34CCC(C(=O)O)(C3)C4)cc2)O[C@@H]2O[C@@]3(C)CC[C@H]4[C@H](C)CC[C@@H]1[C@@]24OO3 [Compound 300]
EC50 (nM): 17
//
COMPOUND: C[C@H]1[C@@H](OCc2ccc(C(=O)O)c(OC(F)(F)F)c2)O[C@@H]2O[C@@]3(C)CC[C@H]4[C@H](C)CC[C@@H]1[C@@]24OO3 [Compound 298]
EC50 (nM): 53.1
//
COMPOUND: C[C@H]1[C@@H](OCc2ccc(C(=O)NC3CC4(C3)CC(C(=O)O)C4)cc2)O[C@@H]2O[C@@]3(C)CC[C@H]4[C@H](C)CC[C@@H]1[C@@]24OO3 (some centres unmarked) [Compound 291]
EC50 (nM): 47.8

Exercise: Could you tell me which EC50 is on file for C[C@H]1[C@@H](OCC2(F)CCCC(C(=O)O)C2)O[C@@H]2O[C@@]3(C)CC[C@H]4[C@H](C)CC[C@@H]1[C@@]24OO3 (some centres unmarked) [Compound 222] ?
Key: 134

This collection of values is drawn from patent US20260242391A1.
